Exercise: for every item that follows, state its recorded IC50.
Test system: 3T3-L1
protocol.summary: Anti-adipogenic activity in mouse 3T3L1 cells assessed as inhibition of adipogenesis after 20 mins by Oil Red O staining based assay
Type: functional, cell-based
test.parameters: 3T3-L1, 20 min
Give bare numbers, in µM.

Solved cases (2 shown):
input.smiles	target.or.test.system	reading
CC(=O)N(Cc1cccc(F)c1F)Cc1cn(S(=O)(=O)c2ccc(F)cc2)c2ccccc12	3T3-L1	10.6
CC(=O)N(Cc1cn(Cc2cccc(F)c2F)nn1)Cc1cn(S(=O)(=O)c2ccc(C)cc2)c2ccccc12	3T3-L1	9.1

# input for lookup
Ask: // lookup IC50 for O=S(=O)(c1ccc(F)cc1)n1cc(CNCc2cccc(F)c2F)c2ccccc21
Result: 12.4
